Entry source: PubChem BioAssay (NCI)

- Tested on: LOX IMVI melanoma
- experimentDescription: NCI tumour cell line growth inhibition, 48 h
metric: TGI

# example entries with known answers
In [3]: df
Out[3]:
                               samplesmiles       targetsystem  experimentalvalue
0  NS(=O)(=O)c1ccc(NC(=O)c2cccn3c(=O)c4ccccc4nc23)cc1  LOX IMVI melanoma           > 100 µM
1     CCCCCCCCCCCCCCCCS(=O)(=O)c1ccc(NN)cc1  LOX IMVI melanoma            > 10 µM
2  Cc1cn([C@H]2[C@@H](CO)C[C@H]2O)c(=O)[nH]c1=O  LOX IMVI melanoma           > 100 µM

Note: attention shifts to another entry.
Q: // query TGI value for entry CC(=O)Nc1ccc(C(=O)N2N=C(C)/C(=C/c3ccc(O)cc3)C2=O)cc1
Ans: > 100 µM

* * *

- Test system: MOLT-4 leukemia
- experimentDescription: NCI tumour cell line growth inhibition, 48 h
The following compounds are listed with their measured TGI values.

Q: // query TGI value for entry Cc1ccc2c(c1)CC1(C2=O)[C@H](c2ccccc2)C2C(=O)c3ccc(C)cc3C2[C@H]1c1ccccc1 (stereo partly specified)
Ans: > 100 µM

* * *

- System: MCF7 breast
- experimentDescription: NCI tumour cell line growth inhibition, 48 h
metric: TGI

# example entries with known answers
compound	TGI
COc1ccc2[nH]c(-c3ccccc3)cc2c1	> 100 µM
CC[C@H](C)[C@H](NC(=O)[C@H]1CCCCN1C)C(=O)N(C)[C@H](C[C@@H](OC(C)=O)c1nc(C(=O)N[C@@H](Cc2ccccc2)C[C@H](C)C(=O)OC)cs1)C(C)C	> 25 µM
C=C[C@@](C)(/C=C/c1ccc(O)cc1)CCC=C(C)C	35.2 µM
COc1cc(-n2cc(-c3cc(O)c(C/C=C(\C)CCC=C(C)C)c(O)c3)nn2)cc2c1O[C@]1(C)CC[C@@H](O)C(C)(C)[C@H]1C2	19.2 µM

Q: // query TGI value for entry O=S1(=O)OCCOS(=O)(=O)C1Cc1nc2ccccc2[nH]1
Ans: > 100 µM

Q: Entry to check: COc1ccc(NC(=O)c2sc3nc4c(cc3c2N)CCCC4)cc1
Ans: > 100 µM

Q: Entry to check: Cc1ccc2c(c1)CC1(C2=O)[C@H](c2ccccc2)C2C(=O)c3ccc(C)cc3C2[C@H]1c1ccccc1 (some centres not stated)
Ans: > 100 µM

* * *

- Test system: KM12 colon
- experimentDescription: NCI tumour cell line growth inhibition, 48 h
metric: TGI

In [3]: df
Out[3]:
                                   molecule  experimentalvalue
0  OC(c1cc(-c2ccccc2)nc2c1ccc1ccccc12)C1CCCCN1 (stereo unspecified)            3.35 µM

Q: // query TGI value for entry O=C1CC2(CCNCC2)C(=O)N1N1CCOCC1
Ans: > 100 µM

Q: Entry to check: COc1ccc(C2=C(OC(=O)N(C)C)c3cccn3-c3cc(Cl)ccc3S2)cc1
Ans: > 10 µM

Q: Entry to check: O=C(CSc1nc2ccc(I)cc2c(=O)n1Cc1ccccc1)NN1C(=O)CCC1=O
Ans: > 100 µM

Q: Entry to check: COC(=O)C1(F)C(=O)NC(=O)NC1OC (stereo unspecified)
Ans: > 100 µM

Q: Entry to check: Cc1cc(=O)oc2cc(OCCn3c(C)nn(-c4ccc(Cl)cc4)c3=O)ccc12
Ans: > 100 µM
